test: Octanol-aqueous buffer distribution coefficient, log D of the compound by LC-MS analysis; format: physicochemical
outcomeMeasure: logD
Answers are plain numbers.

Answered examples (5):
1) COc1cc2c(cc1NC(=O)c1ccc(C(C)(C)C#N)cc1)CCCCC2	4
2) COc1cc2c(cc1NC(=O)c1ccc(C(C)(C)C(F)(F)F)cc1)CCCCC2	6
3) CC(C)(C)c1ccc(NC(=O)c2cc3c(cc2O)CCCCC3)cc1	4.2
4) CC(C)(C)c1ccc(C(=O)Nc2cc3c(cc2C#N)CCCCC3)cc1	5
5) CCc1cc2c(cc1NC(=O)c1ccc(C(C)(C)C)cc1)CCCCC2	5

Hi, could you look up logD for each item in my list?
1. [2H]C([2H])([2H])Oc1cc2c(cc1NC(=O)c1ccc(C(C)(C)C)cc1)CCCCC2
2. COc1cc2c(cc1NC(=O)c1ccc(C(O)(C(F)(F)F)C(F)(F)F)cc1)CCCCC2
3. Cc1cc2c(cc1NC(=O)c1ccc(C(C)(C)C)cc1)CCCCC2
4. COc1cc2c(cc1NC(=O)c1ccc(C(C)(C)O)cc1)CCCCC2
5. COc1cc2c(cc1C(=O)Nc1ccc(C(C)(C)C)cc1)CCCCC2

Solution:
[3, 5, 4, 4, 4]

----------
test: Aqueous solubility of the compound; assay type: physicochemical; settings: aqueous; read-out: solubility
outcomeMeasure: solubility

Answered examples (4):
1) CC(=O)Oc1cc2c(cc1NC(=O)c1ccc(C(C)(C)C)cc1)CCCCC2	< 1 µM
2) CC(C)(C)c1ccc(C(=O)Nc2cc3c(cc2C#N)CCCCC3)cc1	< 1 µM
3) COc1cc2c(cc1NC(=O)c1ccc(C3(C(F)(F)F)CC3)cc1)CCCCC2	< 1 µM
4) COc1cc2c(cc1NC(=O)c1ccc(C(O)(C(F)(F)F)C(F)(F)F)cc1)CCCCC2	< 1 µM

Hi, could you look up solubility for each item in my list?
1. COc1cc2c(cc1C(=O)Nc1ccc(C(C)(C)C)cc1)CCCCC2
2. CC(C)(C)c1ccc(NC(=O)c2cc3c(cc2O)CCCCC3)cc1
3. COc1cc2c(cc1NC(=O)c1ccc(C(C)(C)C(F)(F)F)cc1)CCCCC2

Solution:
["0.5 µM", "< 1 µM", "< 1 µM"]

Hi, could you look up solubility for each item in my list?
1. COc1nc2c(cc1C(=O)Nc1ccc(C(C)(C)C)cc1)CCCCC2
2. [2H]C([2H])([2H])Oc1cc2c(cc1NC(=O)c1ccc(C(C)(C)C)cc1)CCCCC2
3. COc1cc2c(cc1NC(=O)c1ccc(C(C)(C)C#N)cc1)CCCCC2
4. COc1nc2c(cc1C(=O)Nc1ccc(C(C)(C)C)cn1)CCCCC2

Solution:
1.8 µM
28 µM
35 µM
< 1 µM

----------
assay: Half life in C57BL/6 mouse at 40 mg/kg, sc; assay type: ADME, organism-based; details: in vivo
outcomeMeasure: half-life

Problem: I am curious: what half-life value has been reported for COc1cc2c(cc1C(=O)Nc1ccc(C(C)(C)C#N)cc1)CCCCC2 ?
Solution: 18.6 h

----------
experiment: AUC in C57BL/6 mouse at 40 mg/kg, sc; format: ADME, organism-based; design: dose 40 mg/kg; conditions: in vivo
outcomeMeasure: AUC
Report field: quantity (unit follows the number).

Problem: I am curious: what AUC value has been reported for COc1cc2c(cc1C(=O)Nc1ccc(C(C)(C)C#N)cc1)CCCCC2 ?
Solution: 744 ng·h/mL

----------
assay: Bioavailability in C57BL/6 mouse at 40 mg/kg, sc; type: ADME, organism-based; conditions: in vivo
outcomeMeasure: bioavailability (%)
One number for each entry, in %.

Problem: I am curious: what bioavailability value has been reported for COc1cc2c(cc1C(=O)Nc1ccc(C(C)(C)C#N)cc1)CCCCC2 ?
Solution: 4

----------
tested on: Venezuelan equine encephalitis virus; experiment: Antiviral activity against Venezuelan equine encephalitis virus TC83 infected in Asian tiger mosquito C6/36 cells assessed as reduction in virus titer in cell supernatant by measuring inhibition of plaque formation using Vero cells and measured following infection of supernatants with Vero cells for 48 hrs pi by serial dilution plaque based methylene blue dye analysis; assay type: functional
outcomeMeasure: EC90
Report field: quantity (unit follows the number).

Hi, could you look up EC90 for each item in my list?
1. COc1cc2c(cc1C(=O)Nc1ccc(C(C)(C)C#N)cc1)CCCCC2
2. COc1cc2c(cc1NC(=O)c1ccc(C(C)(C)C)cc1)CCCCC2
3. COc1cc2c(cc1C(=O)Nc1ccc(C(C)(C)C)cc1)CCCCC2
4. COc1cc2c(cc1NC(=O)c1ccc(C(C)(C)C)cc1)CCCC2

Solution:
1. 2.1 µM
2. 2.9 µM
3. 2.9 µM
4. 2.1 µM

----------
assay: Bioavailability in C57BL/6 mouse at 40 mg/kg, ip; assay type: ADME, organism-based; conditions: in vivo
outcomeMeasure: bioavailability (%)
Numbers only, in %.

Problem: I am curious: what bioavailability value has been reported for COc1cc2c(cc1C(=O)Nc1ccc(C(C)(C)C#N)cc1)CCCCC2 ?
Solution: 43

----------
target: Dihydroorotate dehydrogenase (quinone), mitochondrial (Homo sapiens, UniProt Q02127)
Sequence (Q02127 whole entry): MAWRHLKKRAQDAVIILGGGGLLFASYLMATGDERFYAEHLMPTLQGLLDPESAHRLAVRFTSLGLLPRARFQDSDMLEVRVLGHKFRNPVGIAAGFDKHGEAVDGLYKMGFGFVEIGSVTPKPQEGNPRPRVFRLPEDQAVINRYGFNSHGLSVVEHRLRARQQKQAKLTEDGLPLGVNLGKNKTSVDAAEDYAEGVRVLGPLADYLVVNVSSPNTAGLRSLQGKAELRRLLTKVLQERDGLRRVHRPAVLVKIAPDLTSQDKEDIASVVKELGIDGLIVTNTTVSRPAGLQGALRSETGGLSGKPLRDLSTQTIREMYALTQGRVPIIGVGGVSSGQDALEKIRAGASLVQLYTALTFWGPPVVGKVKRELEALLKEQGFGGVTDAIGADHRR
Rule: IC50 below 4 µM gives Y. Equal to or above 4 µM gives N.

The following compounds have reported results that may help.
1) COc1cc2c(cc1C(=O)Nc1ccc(C(C)(C)O)cc1)CCCCC2	N
2) COc1cc2c(cc1NC(=O)c1ccc(C(C)(C)C)cc1)CCCCC2	Y
3) COc1cc2c(cc1C(=O)Nc1ccc(C(C)(C)C)cn1)CCCCC2	N

Problem: Could you please tell me whether IC50 recorded for COc1cc2c(cc1C(=O)Nc1ccc(C(C)(C)C#N)cc1)CCCCC2 is less than 4 µM?
Solution: Y

Problem: Could you please tell me whether IC50 recorded for COc1cc2c(cc1C(=O)Nc1ccc(C(C)(C)C)cc1)CCCCC2 is less than 4 µM?
Solution: Y

Problem: Could you please tell me whether IC50 recorded for COc1cc2c(cc1NC(=O)c1ccc(C(C)(C)C)cc1)CCCC2 is less than 4 µM?
Solution: N

----------
assay: Metabolic stability in mouse liver microsomes assessed as half life in presence of NADPH incubated up to 45 mins by LC-MS/MS analysis; type: ADME, Microsome; design: unit not given here; conditions: liver microsomes
Rule: half-life below 2000 gives Condition met. Equal to or above 2000 gives Condition not met.

1. COc1cc2c(cc1NC(=O)c1ccc(C3(C(F)(F)F)CC3)cc1)CCCCC2	Condition met
2. COc1nc2c(cc1C(=O)Nc1ccc(C(C)(C)C)cc1)CCCCC2	Condition not met
3. CC(C)(C)c1ccc(C(=O)Nc2cc3c(cc2O)CCCCC3)cc1	Condition met
4. COc1cc2c(cc1NC(=O)c1ccc(C(C)(C)C(F)(F)F)cc1)CCCCC2	Condition not met
5. CCc1cc2c(cc1NC(=O)c1ccc(C(C)(C)C)cc1)CCCCC2	Condition met

Problem: Could you please tell me whether half-life recorded for CC(C)(C)c1ccc(NC(=O)c2cc3c(cc2O)CCCCC3)cc1 is less than 2000?
Solution: Condition not met

Problem: Could you please tell me whether half-life recorded for CC(C)(C)c1ccc(NC(=O)c2cc3c(cc2OC(F)F)CCCCC3)cc1 is less than 2000?
Solution: Condition met

Problem: Could you please tell me whether half-life recorded for COc1cc2c(cc1NC(=O)c1ccc(C(C)(C)C#N)cc1)CCCCC2 is less than 2000?
Solution: Condition met

Problem: Could you please tell me whether half-life recorded for CC(C)(C)c1ccc(C(=O)Nc2cc3c(cc2C#N)CCCCC3)cc1 is less than 2000?
Solution: Condition met

Problem: Could you please tell me whether half-life recorded for CC(C)(C)c1ccc(C(=O)Nc2ccc3c(c2)CCCCC3)cc1 is less than 2000?
Solution: Condition met

Problem: Could you please tell me whether half-life recorded for CC(C)(C)c1ccc(C(=O)Nc2cc3c(cc2CO)CCCCC3)cc1 is less than 2000?
Solution: Condition met

Problem: Could you please tell me whether half-life recorded for COc1cc2c(cc1NC(=O)c1ccc(C(O)(C(F)(F)F)C(F)(F)F)cc1)CCCCC2 is less than 2000?
Solution: Condition met

Problem: Could you please tell me whether half-life recorded for COc1nc2c(cc1C(=O)Nc1ccc(C(C)(C)C)cn1)CCCCC2 is less than 2000?
Solution: Condition not met

Problem: Could you please tell me whether half-life recorded for COc1nc2c(cc1C(=O)Nc1ncc(C(C)(C)C)cn1)CCCCC2 is less than 2000?
Solution: Condition met

Problem: Could you please tell me whether half-life recorded for COc1cc2c(cc1NC(=O)c1ccc(C(C)(C)O)cc1)CCCCC2 is less than 2000?
Solution: Condition met

Problem: Could you please tell me whether half-life recorded for Cc1cc2c(cc1NC(=O)c1ccc(C(C)(C)C)cc1)CCCCC2 is less than 2000?
Solution: Condition met
